Biological target: T1, human cMet on 3T3 cells (human, UniProt P08581 25-1390)
T1 construct: whole, on cells; also called cell surface-expressed human cMet
T1 sequence (P08581 25-1390): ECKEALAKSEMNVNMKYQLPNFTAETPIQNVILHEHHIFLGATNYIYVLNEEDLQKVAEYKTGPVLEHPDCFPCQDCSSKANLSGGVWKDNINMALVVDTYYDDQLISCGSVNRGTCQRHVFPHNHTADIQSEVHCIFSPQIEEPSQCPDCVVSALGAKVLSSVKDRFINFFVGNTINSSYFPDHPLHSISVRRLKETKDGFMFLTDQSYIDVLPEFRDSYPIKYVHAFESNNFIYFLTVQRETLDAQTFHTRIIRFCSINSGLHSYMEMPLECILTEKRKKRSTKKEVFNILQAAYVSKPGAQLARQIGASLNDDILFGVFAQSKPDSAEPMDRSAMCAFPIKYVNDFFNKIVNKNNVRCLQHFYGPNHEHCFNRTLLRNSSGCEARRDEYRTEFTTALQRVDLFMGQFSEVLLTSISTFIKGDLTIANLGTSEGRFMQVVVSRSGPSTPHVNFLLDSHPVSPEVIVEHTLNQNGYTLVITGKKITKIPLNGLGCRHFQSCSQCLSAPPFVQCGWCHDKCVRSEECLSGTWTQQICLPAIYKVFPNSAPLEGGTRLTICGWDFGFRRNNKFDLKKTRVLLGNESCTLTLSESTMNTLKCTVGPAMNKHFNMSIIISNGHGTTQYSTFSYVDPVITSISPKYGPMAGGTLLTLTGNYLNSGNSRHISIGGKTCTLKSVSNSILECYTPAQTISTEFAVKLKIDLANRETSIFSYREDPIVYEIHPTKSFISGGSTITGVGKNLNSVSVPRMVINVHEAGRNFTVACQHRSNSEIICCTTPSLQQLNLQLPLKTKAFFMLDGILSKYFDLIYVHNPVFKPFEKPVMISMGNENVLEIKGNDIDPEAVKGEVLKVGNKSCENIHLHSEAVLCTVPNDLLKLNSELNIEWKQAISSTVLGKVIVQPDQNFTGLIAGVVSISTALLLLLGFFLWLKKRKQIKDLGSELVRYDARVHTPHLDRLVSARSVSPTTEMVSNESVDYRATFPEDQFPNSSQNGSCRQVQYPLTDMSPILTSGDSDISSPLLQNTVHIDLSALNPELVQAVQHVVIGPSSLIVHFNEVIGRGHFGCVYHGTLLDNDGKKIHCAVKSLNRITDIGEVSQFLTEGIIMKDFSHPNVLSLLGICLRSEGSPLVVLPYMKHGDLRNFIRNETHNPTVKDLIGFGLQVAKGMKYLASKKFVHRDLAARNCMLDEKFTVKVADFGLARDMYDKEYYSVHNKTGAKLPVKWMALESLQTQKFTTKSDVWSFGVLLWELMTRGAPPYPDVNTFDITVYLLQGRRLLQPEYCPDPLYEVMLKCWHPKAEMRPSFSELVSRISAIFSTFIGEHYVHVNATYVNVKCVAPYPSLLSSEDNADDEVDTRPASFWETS
Experiment: phage whole cell ELISA, 3T3 human cMet vs 3T3
What fold over background was measured for each of the following?
Report as a plain number; the unit fold is understood.

Annotate the binder AGYSVCKGYPSFECAFFGT (on M13 phage) [peptide-displaying phage 336-D07] with its measured fold over background.
14.3

Note fold over background for the binder shown: GDLLVCKFDDKFWTETCEWADP (on M13 phage) [peptide-displaying phage 549-G05]
14.5

Please report fold over background for the following binder: AGQFYCSGPPTFQCIMIGT [peptide-displaying phage 550-F11]
1.23

Fill in fold over background for record AQFDRYWHFAWMDVSFSSGQSG (on M13 phage) [peptide-displaying phage 92-B05]
1.23

// Input: AGLPKCSGPPWFSCYYGGT (on M13 phage) [peptide-displaying phage 545-A09] . Output its fold over background only.
1.36
